Recorded IC50 values for a group of compounds are listed next.
# target_desc: Ubiquitin carboxyl-terminal hydrolase 7 (Homo sapiens)
# Sequence (Q93009 whole entry): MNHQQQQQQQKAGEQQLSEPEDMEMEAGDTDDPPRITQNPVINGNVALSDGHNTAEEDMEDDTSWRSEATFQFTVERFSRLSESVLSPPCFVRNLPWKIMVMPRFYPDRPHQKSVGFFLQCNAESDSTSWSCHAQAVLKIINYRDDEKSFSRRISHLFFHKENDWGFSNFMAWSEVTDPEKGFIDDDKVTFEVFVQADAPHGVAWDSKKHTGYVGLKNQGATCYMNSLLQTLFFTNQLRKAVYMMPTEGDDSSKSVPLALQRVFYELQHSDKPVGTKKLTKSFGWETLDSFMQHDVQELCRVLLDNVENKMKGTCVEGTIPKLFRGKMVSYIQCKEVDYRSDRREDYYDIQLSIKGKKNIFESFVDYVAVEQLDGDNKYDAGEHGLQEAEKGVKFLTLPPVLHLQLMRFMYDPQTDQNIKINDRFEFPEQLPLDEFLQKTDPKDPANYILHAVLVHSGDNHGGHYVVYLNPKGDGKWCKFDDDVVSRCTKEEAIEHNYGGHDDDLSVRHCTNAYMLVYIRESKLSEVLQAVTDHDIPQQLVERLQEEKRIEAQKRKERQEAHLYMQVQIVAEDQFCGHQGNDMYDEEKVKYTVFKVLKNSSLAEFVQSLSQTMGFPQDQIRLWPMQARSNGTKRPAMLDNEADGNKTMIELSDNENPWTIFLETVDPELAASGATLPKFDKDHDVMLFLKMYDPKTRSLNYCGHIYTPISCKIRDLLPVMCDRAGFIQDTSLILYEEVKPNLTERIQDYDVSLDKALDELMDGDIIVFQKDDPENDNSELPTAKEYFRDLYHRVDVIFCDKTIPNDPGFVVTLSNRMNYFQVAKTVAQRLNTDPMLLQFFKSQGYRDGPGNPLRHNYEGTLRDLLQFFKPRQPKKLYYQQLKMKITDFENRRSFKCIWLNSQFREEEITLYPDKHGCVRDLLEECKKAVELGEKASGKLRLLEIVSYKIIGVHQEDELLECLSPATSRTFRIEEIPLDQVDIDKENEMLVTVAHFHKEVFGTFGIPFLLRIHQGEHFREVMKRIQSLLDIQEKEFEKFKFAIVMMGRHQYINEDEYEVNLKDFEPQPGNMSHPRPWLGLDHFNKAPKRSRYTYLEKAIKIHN
# procedure_details: Inhibition of human USP7 using ubiquitin-Rho as substrate incubated for 1 hrs
observable: IC50

INSERT INTO assay_data (smiles_entry, observable, recorded_result) VALUES
  ('CCc1c(-c2ccc(O)cc2)cnc(N)c1-c1cccc(C)c1', 'IC50', '> 63.3 µM'),
  ('CCc1c(-c2ccc(O)cc2)cnc(N)c1-c1ccc(S(C)(=O)=O)cc1', 'IC50', '> 63.3 µM'),
  ('CCc1c(-c2ccc(C(=O)N(C)C)cc2)cnc(N)c1-c1ccc(O)cc1', 'IC50', '75.6 µM');
